The origin of these recorded values is patent US8426429B2.

# SYSTEM_NAME: β-secretase (BACE) (Homo sapiens)
# Construct: purchased Panvera
# PROTOCOL_NOTES: BACE FS1 % Inhibition Assay
# Format: biochemical
# EXPERIMENTAL_SETUP: 0.3 μM compound; FS1 substrate
Please go through the items and note down their % Inhibition (FS).

Summary line: CC(=O)N1CCC(C(=O)NCCN2Cc3cc(-c4ccccc4Cl)ccc3N=C2N)CC1 [Compound 691] , β-secretase (BACE) (Homo sapiens), reported % Inhibition (FS) = <30%

Summary line: CN(Cc1cccc(CC(=O)O)c1)C(=O)CCC(C1CCCCC1)N1Cc2cc(Oc3ccccc3)ccc2N=C1N (stereo not drawn) [Compound 778] , β-secretase (BACE) (Homo sapiens), reported % Inhibition (FS) = <30%

Summary line: NC1=Nc2ccc(C3=CCCC3)cc2CN1CCNC(=O)C1CCC(C(F)(F)F)CC1 (stereo not drawn) [Compound 707] , β-secretase (BACE) (Homo sapiens), reported % Inhibition (FS) = <30%

* * *

# SYSTEM_NAME: β-secretase (BACE) (Homo sapiens)
# Construct: purchased Panvera
# PROTOCOL_NOTES: BACE FS1 % Inhibition Assay
# Format: biochemical
# EXPERIMENTAL_SETUP: 1 μM test compound
MEASURED_METRIC: % Inhibition (FS)

CN(C(=O)c1cccc(CN2Cc3cc(-c4ccncc4)ccc3N=C2N)c1)C1CCCCC1 has a reported % Inhibition (FS) of <30%

NC1=Nc2ccc(Oc3ccccc3)cc2CN1CC1CCN(C(=O)C23CC4CC(CC(C4)C2)C3)CC1 has a reported % Inhibition (FS) of <30%

CC(=O)c1cccc(-c2ccc3c(c2)CN(CCNC(=O)c2cc(C)oc2C)C(N)=N3)c1 has a reported % Inhibition (FS) of <30%

COc1cccc(COc2ccc3c(c2)CN(Cc2cccc(C(=O)N(C)C4CCCCC4)c2)C(N)=N3)c1 has a reported % Inhibition (FS) of <30%

* * *

# SYSTEM_NAME: β-secretase (BACE) (Homo sapiens)
# Construct: purchased Panvera
# PROTOCOL_NOTES: BACE FS1 % Inhibition Assay
# Assay type: biochemical
# EXPERIMENTAL_SETUP: 3 μM test compound
Please go through the items and note down their % Inhibition (FS).
Reply with just the number (in %).

CC(C)C(CC(=O)N(C)C1CCCCC1)N1Cc2cc(Oc3ccccc3)ccc2N=C1N (stereo not shown) has a reported % Inhibition (FS) of 66

NC1=Nc2ccc(-c3ccccc3F)cc2CN1CCNC(=O)C12CC3CC(CC(C3)C1)C2 has a reported % Inhibition (FS) of 104

CC1CCN(C(=O)CCCC(CCC(=O)N2CCC(C)CC2)N2Cc3cc(Oc4ccccc4)ccc3N=C2N)CC1 (stereo not shown) has a reported % Inhibition (FS) of 68

Cc1ccccc1-c1ccc2c(c1)CN(CCNC(=O)C(C)(C)C)C(N)=N2 has a reported % Inhibition (FS) of 105

* * *

Please go through the items and note down their % Inhibition (FS).
# SYSTEM_NAME: β-secretase (BACE) (Homo sapiens, UniProt P56817)
# Construct: purchased Panvera
# Sequence (P56817 46-501): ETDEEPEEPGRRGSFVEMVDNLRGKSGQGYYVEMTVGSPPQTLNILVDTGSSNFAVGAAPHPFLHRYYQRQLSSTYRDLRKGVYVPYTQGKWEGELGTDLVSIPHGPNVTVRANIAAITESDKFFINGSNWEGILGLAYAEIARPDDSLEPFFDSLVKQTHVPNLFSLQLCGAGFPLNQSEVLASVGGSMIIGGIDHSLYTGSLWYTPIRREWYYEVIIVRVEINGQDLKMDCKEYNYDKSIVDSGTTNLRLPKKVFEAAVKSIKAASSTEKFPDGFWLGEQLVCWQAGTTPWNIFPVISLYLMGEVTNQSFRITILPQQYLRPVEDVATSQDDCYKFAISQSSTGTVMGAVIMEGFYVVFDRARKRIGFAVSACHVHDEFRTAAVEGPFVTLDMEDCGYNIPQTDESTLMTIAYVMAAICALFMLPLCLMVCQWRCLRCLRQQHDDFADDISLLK
# PROTOCOL_NOTES: BACE FS1 % Inhibition Assay
# Type: biochemical
# EXPERIMENTAL_SETUP: 3 μM test compound
Reply with just the number (in %).

CC(C)(C)OC(=O)NCc1cccc(CN2Cc3cc(Oc4ccccc4)ccc3N=C2N)c1 has a reported % Inhibition (FS) of 33

NC1=Nc2ccc(Oc3ccccc3)cc2CN1CC1CCN(C(=O)C2CCCCC2)CC1 has a reported % Inhibition (FS) of 70

NC1=Nc2ccc(Oc3ccccc3)cc2CN1Cc1cccc(C(=O)N2CCCCC2)c1 has a reported % Inhibition (FS) of 67

CCCC(CCC)C(=O)N1CCC(CN2Cc3cc(Oc4ccccc4)ccc3N=C2N)CC1 has a reported % Inhibition (FS) of 98

NC1=Nc2ccc(Oc3ccccc3)cc2CN1CCCCNC(=O)C1CCCC1 has a reported % Inhibition (FS) of 39

CN(C(=O)CCC(c1ccc(Cl)cc1)N1Cc2cc(Oc3ccccc3)ccc2N=C1N)C1CCCCC1 (centres unmarked) has a reported % Inhibition (FS) of 109

CN(C(=O)c1cccc(C(CC2CCCCC2)N2Cc3cc(Oc4ccccc4)ccc3N=C2N)c1)C1CCCCC1 (centres unmarked) has a reported % Inhibition (FS) of 57

CN(C(=O)c1cccc(CN2Cc3cc([S+]([O-])c4ccccc4)ccc3N=C2N)c1)C1CCCCC1 (centres unmarked) has a reported % Inhibition (FS) of 71

COc1ccccc1-c1cc2c(cc1F)CN(CCC(=O)NC1C3CC4CC(C3)CC1C4)C(N)=N2 (centres unmarked) has a reported % Inhibition (FS) of 37
